- Assay: inhibitors of TNFa-induced NFkB p65 translocation, primary screen, imaging, HUVEC, MLSMR starter and 10KST1 sets (AID 438);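 also: compound added about 3h40 before a 20 min TNFalpha stimulation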
- Experimental Context: HUVEC TNFa-induced p65 nuclear translocation; measured here: nuclei count (cytotoxicity indicator), at 2.08 µM
Readout Type: cell count
API doc: respond with a numeric literal and nothing else, no unit.

Sample answers from the record:
- Cc1ccccc1-c1nn2c(-c3ccccc3)nnc2s1: 590
- CC(=O)Nc1cc2c(cc1Br)OCCO2: 524
- O=C1CSC(=Nc2ccc(O)cc2)N1c1ccc(O)cc1: 380
- COc1cccc(-c2nc(NC(C)C)c3ccccc3n2)c1O: 342
- CCOc1ccc(CSC(CC(=O)O)C(=O)O)cc1 (stereo not given): 670
- Clc1ccc(-n2ncc3c(NCCCn4ccnc4)ncnc32)cc1: 618

INPUT: Reported cell count for CC(C)Cc1ccc(C(C)C(=O)O)cc1 (stereo not given) : what is it?
OUTPUT: 604

INPUT: Reported cell count for "Cc1nnc(SCc2nc3ccccc3[nH]2)s1" : what is it?
OUTPUT: 417

INPUT: Reported cell count for "Cc1ccc(S(=O)(=O)NC(=O)NN2CCCCCC2)cc1" : what is it?
OUTPUT: 604

INPUT: Reported cell count for CCC1(C)Cc2c(sc3c2c(=O)n(C)c2nnc(SCc4ccccc4)n32)CO1 (stereo not given) : what is it?
OUTPUT: 584

INPUT: Reported cell count for "O=C(Nc1cccnc1)c1cccnc1" : what is it?
OUTPUT: 639

INPUT: Reported cell count for "CCOc1nc(Oc2cccc(C(=O)O)c2)nc(Oc2cccc(C(=O)O)c2)n1" : what is it?
OUTPUT: 627

INPUT: Reported cell count for "O=C(NCc1ccco1)c1cnn2c(C(F)(F)F)cc(-c3ccco3)nc12" : what is it?
OUTPUT: 480

====

- Target Desc: Voltage-gated potassium channel subunit beta-2 (Rattus norvegicus) (UniProt P62483)
- Sequence (P62483 whole entry, looked up): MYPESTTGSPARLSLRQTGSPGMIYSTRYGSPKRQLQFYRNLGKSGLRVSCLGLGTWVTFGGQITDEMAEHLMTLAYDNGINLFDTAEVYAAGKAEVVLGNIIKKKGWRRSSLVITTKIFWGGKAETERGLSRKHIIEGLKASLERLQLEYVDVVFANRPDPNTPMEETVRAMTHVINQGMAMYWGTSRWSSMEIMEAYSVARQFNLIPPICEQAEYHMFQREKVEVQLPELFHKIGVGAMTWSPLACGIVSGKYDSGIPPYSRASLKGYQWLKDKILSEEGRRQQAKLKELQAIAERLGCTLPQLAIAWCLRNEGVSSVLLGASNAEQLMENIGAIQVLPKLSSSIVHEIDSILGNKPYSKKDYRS
- Assay: KvBeta positive modulators, primary screen, biochemical, NADPH fluorescence (AID 623);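 also: fluorescence intensity change per second fitted from 20 to 320 s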
- Experimental Context: Recombinant KvBeta, NADPH fluorescence decrease slope, 10 min; at 10 µM; stronger effect = lower value
Recorded NADPH fluorescence slope by entry
API doc: respond with a numeric literal and nothing else, no unit.

Sample answers from the record:
- Cc1cc(C)n(C(=O)CSc2nc3ccccc3o2)n1: -4.3e-05
- CC(C)C(C(=O)Nc1ncn[nH]1)N1C(=O)c2ccccc2C1=O (centres undefined): -7.2e-06

INPUT: Reported NADPH fluorescence slope for "COc1ccc(CCNc2nc3c(c(=O)n(C)c(=O)n3C)n2C)cc1OC" : what is it?
OUTPUT: -6e-05

INPUT: Reported NADPH fluorescence slope for "COc1ccc(C(=O)N/C(N)=N/c2nc3ccccc3o2)cc1" : what is it?
OUTPUT: -3.2e-05

====

Recorded slope by entry
- Target Desc: Alpha-2C adrenergic receptor (Homo sapiens)
- Assay: modulators of alpha2C/GIRK thallium flux, primary screen, cell-based, HEK293 alpha2C/GIRK1/2 (AID 624);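 also: slope of fluorescence ratio to pre-addition baseline per second over 15 to 24 s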
- Experimental Context: thallium flux BTC fluorescence, at 10 µM, actives lie on both sides
API doc: respond with a numeric literal and nothing else, no unit.

Sample answers from the record:
* COC(=O)c1cc(Br)c(=O)n(CCc2ccc(F)cc2)c1 | 0.00485
* C#CCN(C)Cc1ccccc1 | 0.00478
* Cc1c(C(=O)O)c(=S)sn1CCOc1ccccc1 | 0.00412
* N#CC1=C(N)NC(SCc2ccc(Cl)cc2)=C(C#N)C12CCCCC2 | 0.00372

INPUT: Reported slope for "CCOC(=O)c1ccc(-n2c(=O)[nH]c3ccccc3c2=O)cc1" : what is it?
OUTPUT: 0.00476

INPUT: Reported slope for "COC(=O)c1c(NC(=O)c2nn(C)cc2Cl)sc2c1CCCC2" : what is it?
OUTPUT: 0.00842

INPUT: Reported slope for COc1ccc(C2CC(C(F)(F)F)n3ncc(C(=O)Nc4cccc(O)c4)c3N2)cc1OC (stereo not drawn) : what is it?
OUTPUT: 0.0043

INPUT: Reported slope for "COC(=O)CC1=NC(=O)CS1" : what is it?
OUTPUT: 0.00544

Each recorded value in this set is attributed to PubChem BioAssay.
